Assay: self-splicing fitness, log relative to wild type (ln ratio); higher = more splicing; Tetrahymena group I intron in knt gene, E. coli kanamycin selection, DiMSum; sequences stand for … in CUCUCU…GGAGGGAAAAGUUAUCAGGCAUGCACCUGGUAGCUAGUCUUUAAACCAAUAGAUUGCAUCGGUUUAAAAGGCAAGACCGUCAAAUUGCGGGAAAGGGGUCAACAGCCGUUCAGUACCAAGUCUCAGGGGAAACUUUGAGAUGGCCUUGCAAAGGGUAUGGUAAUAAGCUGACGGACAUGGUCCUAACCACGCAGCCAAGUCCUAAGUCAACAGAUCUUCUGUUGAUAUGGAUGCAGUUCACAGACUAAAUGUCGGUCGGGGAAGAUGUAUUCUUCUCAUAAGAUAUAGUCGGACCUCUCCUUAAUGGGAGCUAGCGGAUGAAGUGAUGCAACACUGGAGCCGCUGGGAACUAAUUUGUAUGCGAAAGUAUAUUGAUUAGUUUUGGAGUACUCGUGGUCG;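 further: selection with 25 µg/mL kanamycin versus none on LB agar overnight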
Conditions: 37 °C
Each entry gets criterion not met if its self-splicing fitness (ln) stays under -2, and criterion met if its self-splicing fitness (ln) is -2 or above.

GAGCAGCAAUAUUACGACAU    criterion met
UUCAAGCAAUAUUACGUGAG    criterion met
GACUAGCAAUAUUACGUGUG    criterion met
CCCGAGCAAUAUUACGGAAC    criterion not met
AGUUAGCAAUAUUACGUCAU    criterion met
ACCCAGCAAUAUUACGUUUA    criterion met
GUCCAGCAAUAUUACGUCCU    criterion met
AGAAAGCAAUAUUACGCGAA    criterion met
UUGGAGCAAUAUUACGUGUC    criterion not met
CAUAAGCAAUAUUACGUAUC    criterion not met
AUGUAGCAAUAUUACGGAGG    criterion not met
GGGGAGCAAUAUUACGUAGG    criterion met
UGGCAGCAAUAUUACGAAAA    criterion met
GGGGAGCAAUAUUACGUACG    criterion met
ACGAAGCAAUAUUACGACAA    criterion met
CUCGAGCAAUAUUACGGAUU    criterion not met
CGGCAGCAAUAUUACGUAGG    criterion met
GCGUAGCAAUAUUACGGGAA    criterion met
UGUUAGCAAUAUUACGUUGA    criterion met
AGUCAGCAAUAUUACGUUCU    criterion met
CGGUAGCAAUAUUACGUUUU    criterion not met
GCCUAGCAAUAUUACGGCGC    criterion met
UCAAAGCAAUAUUACGUUUA    criterion not met

Hello, the source for this data is the supplement of paper PMC7877785, in case you need it.
